# Species: Homo sapiens
# ASSAY_REMARKS: To identify inhibition of the IFN signalling (Jak-Stat) pathway via expression of an eGFP reporter gene under the control of an IFN-stimulated response element (ISRE) containing MxA promoter.
# Assay type: functional
# Parameters: scale not given: direction of the effect not stated beside the values
# CONDITION: 30 µM
# Lookup of reported Percent Effect keyed by entry
ATTRIBUTE_MEASURED: Percent Effect (%)

1. Cc1nc[nH]c1CN1CCN(C(=O)c2cccs2)[C@H]2CS(=O)(=O)C[C@H]21 ... 5.03
2. O=C(c1ccc(Br)o1)N1CCCCC1Cn1cccn1 (centres undefined) ... 18.2
3. O=C(Nc1ccc(CCN2CCC(O)CC2)cc1)Nc1cccnc1 ... 8.03
4. CC(=O)N1CCCN(Cc2csc(-c3ncccn3)n2)CC1 ... 12
5. Cc1nnc2n1CCN(Cc1csc(-c3ccc(F)cc3)n1)C2 ... 4.35
6. Cc1nc(C2CCCN(C(=O)c3ccco3)C2)no1 (centres undefined) ... 16
7. O=C(NCc1cn2c(n1)CN(CC1CCOCC1)CC2)C1CCC1 ... 5.25
8. CCc1nnc2n1CCN(CC(=O)Nc1cc(C(C)(C)C)nn1C)C2 ... 2.83
9. CC(NC(=O)N1CCN(c2ccccc2)CC1)c1nncn1C (centres undefined) ... 13.4
10. O=C(CCc1cscn1)N1CCCC(n2ccnc2)C1 (centres undefined) ... -13.2
11. CC(C)N1CCC(Cc2cnc(-c3cccc(C(=O)O)c3)cn2)C1 (centres undefined) ... 7.71
12. Cc1ccn(-c2ccccc2NCc2ccccn2)n1 ... 2.69
13. Fc1ccccc1-c1noc2c1CN(CC1CC1)CC2 ... 11.6
14. COCc1ncc(CN2CCC(Oc3ccccc3OC)CC2)cn1 ... 1.55
15. Cc1cc(-c2cnc(NC3CCCC3)nc2-c2ccoc2C)on1 ... 14.7
16. CCCN(C(=O)COC)c1nc2c(s1)CCc1c-2cnn1C ... 17.9
17. O=C(Cc1csc(-c2ccc(Cl)cc2)n1)NC(C(=O)O)c1ccccc1 (centres undefined) ... 0.509
18. Cc1cc(N2CCC(Cc3ccccc3)CC2)nc(-c2ccncc2)n1 ... -2.83
19. Cc1ccc(-c2nc(CN3CCCC3Cn3cc(C)cn3)no2)cc1 (centres undefined) ... 12.1
20. CN(C)C(=O)CN1C(=O)CCC12CCN(Cc1ccc(F)cc1)CC2 ... 14
21. Cc1cc(C)c(OCC(=O)NS(=O)(=O)c2c(C)noc2C)c(C)c1 ... 7.01
22. COCCN1CCN(Cc2cccc(C(N)=O)c2)CC1C (centres undefined) ... 16.2
23. O=C1NCCN(CC2CC2)C12CCN(Cc1ccc3c(c1)OCO3)CC2 ... 30.6
24. Cn1cc(C(=O)NC[C@@H]2OC[C@H]3CN(S(C)(=O)=O)CC[C@H]32)cn1 ... 9.87
25. COCCn1ccc(=O)c(OCC(=O)Nc2cccc(C(C)=O)c2)c1C ... -24.6
26. Cn1cc(C2CC(=O)NC23CCN(CC2CC2)CC3)cn1 (centres undefined) ... 0.353
27. O=C(NCCCN1CCOCC1)c1ccn(-c2ccc3ccccn23)n1 ... 5.6
28. OCC1CCCN1c1cc(NCCNc2ccccn2)ncn1 (centres undefined) ... 22.1
29. CC(NC(=O)CCc1cccs1)c1nnc2n1CCC2 (centres undefined) ... -0.332
30. O=C(c1cccnc1)N1CCn2nnc(COc3cccnc3)c2C1 ... -1.63
31. Cn1cc(CN2C[C@@H]3CN(Cc4ccoc4)CCO[C@@H]3C2)cn1 ... 10.9
32. O=C(c1ccn(-c2cccc(F)c2)n1)N1CCCC(n2cccn2)C1 (centres undefined) ... 2.64
33. Cc1noc(C)c1CN(C)C(=O)c1ccc(NC2CC2)nc1 ... -7.41
34. CC(NC(=O)NCCCc1n[nH]c(N)c1C#N)c1cccs1 (centres undefined) ... 15.9
35. COc1cccc(CN2CCC3(CCN(C(=O)[C@H]4CCCO4)CC3)C2)c1 ... -14.8
36. CCn1nc(C(=O)N2CCCC(n3cncn3)C2)ccc1=O (centres undefined) ... -15.3
37. O=C(Nc1cc(F)ccc1OCC1CCCO1)c1ccccn1 (centres undefined) ... 2.47
38. CCc1cc(C(=O)N2CCCC2c2nc(C)c(F)c(O)n2)on1 (centres undefined) ... 26.2
39. Cc1cc(C(=O)NCc2ccnc(N3CCN(C)CC3)c2)c(C)s1 ... -0.506
